Where these numbers come from: ChEMBL document CHEMBL1145492

Test system: CCRF-CEM
test: Activity of nucleoside diphosphate kinase from crude human CEM cell extract
Format: cell-free
readout type: Activity (nmol/min/mg)
# unit: nmol/min/mg | format: bare number

Please review the entries below; each comes with its answer.
Cc1cn([C@H]2C=C[C@@H](COP(=O)(O)OP(=O)(O)O)O2)c(=O)[nH]c1=O: 1.1
Cc1cn([C@H]2C[C@H](O)[C@@H](COP(=O)(O)OP(=O)(O)O)O2)c(=O)[nH]c1=O: 2700
Nc1ncnc2c1ncn2[C@@H]1O[C@H](COP(=O)(O)OP(=O)(O)O)[C@@H](O)[C@H]1O: 2500

Query: What value of Activity has been reported for the following molecule? Cc1cn([C@@H]2C[C@H](N=[N+]=[N-])[C@@H](COP(=O)(O)OP(=O)(O)O)O2)c(=O)[nH]c1=O
Reply: 0.018
